# assay.system: spike protein of SARS-CoV-2 β strain on pseudovirus (SARS-CoV-2 (β strain))
# assay.notes: cell-based or functional assay
measure: IC50 of pseudovirus infection (luciferase)

binder	value
Ab712 (antibody, V domains shown) VH: QVQLVQSGSELKKPGASVKISCKASGYTFINHAINWVRQAPGQGLEWMGWINTNTGNPTYAPGFTGRFVFSLDTSVSTAYLQISSLKAEDTAVYYCARIPIRDYDYDGSGYYYFLDYWGQGTLVTVSS VL: SYELTQDPAVSVALGQTVRITCQGDSLRSSSASWYQQKPGQAPVLVIYGKTNRPSGIPDRFSGSSSGNTASLTITGAQAEDEADYYCNSRDNSGNHPVVFGGGTKLTVL	0.0077 µg/mL
Ab830 (antibody, V domains shown) VH: QVQLVQSGAEVKKPGSSVKVSCKTSGGTFTNYTISWVRQAPGQGLEWMGRIIPIFDIVNYAQKFQGRVTITADKSTSTTYMELSSLRSEDTAVYYCARDGVLYDTSGYLYDAFDIWGQGTMVTVSS VL: DIQMTQSPSSLSASVGDRVTITCRASQGINNYLAWFQQKPGKAPKSLIYAASSLQSGVPPKFSGSGSGTDFTLTISSLQPEDFATYYCLHYNSYPWTFGQGTKVEIK	0.0569 µg/mL
